Tested on: CAKI-1
Assay: NCI tumour cell line growth inhibition, 48 h
Activity calls are given as the source filed them. No stated cut-off is given here; in the data, active = GI50 up to about 1.1 µM and inactive = higher.
Write down one outcome, taken from 1 (active), -1 (inactive)

Look over these answered cases.
1. COc1ccc(C2=C[C@]3(O)CCCN3C[C@@H]2c2ccc(OC)c(OC)c2)cc1    1
2. N#Cc1c(N)c2c(c(-c3ccccc3)c1-c1ccccc1)C(=O)N(Nc1ccccc1)C2=O    -1
3. O=[N+]([O-])c1ccc(C2=NN(c3ccccc3)C[N+](c3ccc(Br)cc3)=N2)cc1    -1

Please examine the following record next.
QUERY: Check the results log: what was the call for CCOC(=O)CCC(C(=O)OCC)n1nnc2cc(Nc3c(C)[n+]([O-])c4cc(F)c(OCC)cc4[n+]3[O-])ccc21 (centres undefined) ?
RESULT: -1

###

Test system: PC-3
Test: NCI tumour cell line growth inhibition, 48 h
Calls of active or inactive are those of the source. Rule as the data show it: active = GI50 up to about 1.1 µM and inactive = higher.
MEASURED_ATTRIBUTE: GI50

Study these solved cases before continuing.
1) COC1(OC)CCCc2c1no[n+]2[O-]    > 100 µM (inactive)
2) Oc1ccccc1/C=N/Nc1nnc2c3ccccc3c3ccccc3c2n1    80.5 µM (inactive)
3) Nc1ccc2nc(-c3cccc(C(F)(F)F)c3)cc(O)c2c1    23.8 µM (inactive)
4) COc1cc(/C=C2\N=C(c3ccccc3)N(c3ccc(C(=O)c4ccccc4)cc3N3C(=O)/C(=C/c4cc(OC)c(OC)c(OC)c4)N=C3c3ccccc3)C2=O)cc(OC)c1OC    12.6 µM (inactive)

QUERY: So what's the measured GI50 for this one? CCCCCCCCCCCCCCCCCCNC(=O)C(N)Cc1ccc(OCc2ccccc2)cn1 (centres undefined)
RESULT: 14.2 µM (inactive)

QUERY: Give its GI50 value. Item: CC(C)=NNc1snnc1C(N)=O
RESULT: > 100 µM (inactive)

QUERY: For the molecule shown here, CC1=C[C@H](O)[C@@]2(C)[C@@H]([C@@H]1C)[C@H]1CC[C@@H]3[C@@]4(C)CC[C@H](O)C(C)(C)[C@@H]4CC[C@@]3(C)[C@]1(C)C[C@@H]2O , give the reported GI50.
RESULT: 20.6 µM (inactive)

QUERY: Would you kindly share the measured GI50 for C1CC2=C(C1)[Se]C(=C1Sc3nsnc3S1)[Se]2 ?
RESULT: > 100 µM (inactive)

QUERY: State the recorded GI50 for this entry: Cc1ccc(OCC2OC(n3cnc4c(Cl)nc(Cl)nc43)CC2Oc2ccc(C)cc2)cc1 (centres undefined)
RESULT: 2.44 µM (inactive)

###

Tested on: LOX IMVI
Test: NCI tumour cell line growth inhibition, 48 h
The source made the active and inactive calls. Rule as the data show it: active = GI50 up to about 1.1 µM and inactive = higher.
Answer with one of the outcomes active, inactive

1) O=C1C=CC(=O)c2c1ccc1c3ccccc3n(CCCCCCCCCCCCn3c4ccccc4c4ccc5c(c43)C(=O)C=CC5=O)c21    inactive
2) C=CCNC(=O)NCCCC(NC(C)=O)C(=O)NCc1ccccc1 (stereo not drawn)    inactive
3) CCOC(=O)NC(C(=O)OCC)C(F)(F)F (stereo not drawn)    inactive
4) COC(=O)c1ccccc1/N=C(/NC1CCCCCC1)NS(=O)(=O)c1ccc(C)cc1    inactive
5) COC(=O)CCC(C)C1CCC2C3CCC4CC5CCC4(C)C3(O5)C(Br)C(Br)C12C (stereo not drawn)    inactive
6) COc1ccc(N2C(=O)[C@H]3[C@H]4CC(C(C)(C)C)CC[C@H]4c4c(n(C)c5ccccc45)[C@H]3C2=O)cc1 (stereo partly drawn)    inactive
7) O=C(O/N=C1/CCC/C1=C\c1ccccc1)c1ccc(Cl)c(Cl)c1    inactive
8) COc1ccc(C(=O)NCCC2=CCCCC2)cc1    inactive

QUERY: Can you look up the reported call for O=C1C=CC(=O)c2c1ccc1c3ccccc3n(-c3ccccc3[N+](=O)[O-])c21 for me?
RESULT: inactive

QUERY: Tell me the recorded outcome of this test for O=C1/C(=C/c2ccc3c(c2)OCO3)SC2C=Nc3ccccc3N12 (stereo not drawn) .
RESULT: inactive

QUERY: Each compound tested received a call. Report the one for N#Cc1nc(NC(=O)c2ccccc2)sc1N .
RESULT: inactive

###

Test system: NCI-H226
Assay: NCI tumour cell line growth inhibition, 48 h
Active and inactive are the calls of the source. No stated cut-off is given here; in the data, active = GI50 up to about 1.1 µM and inactive = higher.
Measured GI50, listed per entry for reference.

Example molecules with recorded GI50:
1) COC(=O)/C=C/c1cc(O)c2c(c1)[C@H](C(=O)OC)[C@@H](c1ccc(O)c(O)c1)O2    2.48 µM (inactive)
2) Cc1cc(C23OC4COC(C)(C)OC4C2OC(C)(C)O3)nc2ccccc12 (stereo not given)    > 100 µM (inactive)
3) CC1=NN2C=Nc3c(c(-c4ccc(Cl)cc4)cn3-c3ccc(C)cc3)C2N1 (stereo not given)    > 100 µM (inactive)

QUERY: Given the molecule Nc1c(-c2ccc(Cl)cc2Cl)[n+]([O-])c2ccccc2[n+]1[O-] , what is its reported GI50?
RESULT: > 100 µM (inactive)

QUERY: Value lookup for GI50; key = COc1cc(C2c3cc4c(cc3[C@H](OCCN(C)C)[C@@H]3COC(=O)C23)OCO4)cc(OC)c1O (stereo not given in full)
RESULT: 0.0441 µM (active)

###

Test system: MOLT-4
Assay: NCI tumour cell line growth inhibition, 48 h
Active and inactive are the calls of the source. Cut-off read from the data, not from the text of the source: active = GI50 up to about 1.1 µM and inactive = higher.
Use one of these outcomes when replying: 1 = active, 0 = inactive

1) C=CCNC(=O)NCCCC(NC(C)=O)C(=O)NCc1ccccc1 (stereo not drawn)    0
2) COc1ccc(NCc2cc(OC)c(OC)c(OC)c2)cc1    1
3) Cc1cc(C)nc(NS(=O)(=O)c2ccc(Nc3c4ccccc4nc4c(C(=O)N5CCN(CCOS(C)(=O)=O)CC5)cccc34)cc2)n1    0
4) CN1CCC2(CC1)SSC1(CCN(C)CC1)S2    0
5) CC(=O)OCC1OC(Nn2c(=O)[nH]c3ccccc3c2=O)C(OC(C)=O)C(OC(C)=O)C1OC(C)=O (stereo not drawn)    0
6) Oc1ccc2cc(Br)ccc2c1-c1c(O)ccc2ccc(Br)cc12    0

QUERY: Short answer needed: outcome of this test for COc1ccc(O)c(C(=O)CCC(=O)O)c1 ?
RESULT: 0

QUERY: I'd appreciate the recorded outcome for O=P1(c2ccccc2)Nc2ccccc2SSc2ccccc2N1 from this test.
RESULT: 0

QUERY: Name the outcome recorded for COc1cc(C2c3cc4c(cc3[C@H](OCCN(C)C)[C@@H]3COC(=O)C23)OCO4)cc(OC)c1O (stereo partly drawn) in the assay.
RESULT: 1

QUERY: Record lookup: outcome of this test for N#CCCn1c(S)nnc1CCC(=O)Nc1ccc(Cl)cc1Cl ?
RESULT: 0

QUERY: Which result was noted for this compound in the test: CCOC(=O)N1CC2(C(=O)OC)C=CC1C(C(=O)OC)C2 (stereo not drawn)
RESULT: 0

QUERY: Query: recorded result category for CC1OC(O[C@H]2CC[C@]3(C=O)[C@H]4CC[C@]5(C)[C@H](C6=CC(=O)OC6)CC[C@]5(O)[C@@H]4C=C[C@]3(O)C2)CC(O)C1O (stereo partly drawn) in this test
RESULT: 1

QUERY: Please state the recorded outcome for this compound: CCN(CC)CCN(/C(=N/c1ccccc1)N1CCOCC1)c1ccccc1
RESULT: 0

###

Test system: SF-268
Assay: NCI tumour cell line growth inhibition, 48 h
Activity calls are given as the source filed them. No stated cut-off is given here; in the data, active = GI50 up to about 1.1 µM and inactive = higher.
One label from this list, please: t = active, f = inactive

# count of solved cases: 2
1. CCn1c(CSc2nc(-c3ccccc3)c(-c3ccccc3)[nH]2)n[nH]c1=S    f
2. CCOC(=O)C(/N=N\c1ccc(S(N)(=O)=O)cc1)C(C)=O (configuration not stated)    f

QUERY: Call for entry c1cnc2c(c1)-n1cccc1C1(CCCCC1)NN2 :
RESULT: f

QUERY: # fetch the recorded call for C=CCc1cccc(/C=N\N/C(N)=N/O)c1O here
RESULT: f

QUERY: Short answer needed: outcome of this test for COC(=O)c1cc(NC2OCC(OC(C)=O)C(OC(C)=O)C2OC(C)=O)nc(SC)c1C(=O)OC (configuration not stated) ?
RESULT: f

###

System: M14
Experiment: NCI tumour cell line growth inhibition, 48 h
The source made the active and inactive calls. Cut-off read from the data, not from the text of the source: active = GI50 up to about 1.1 µM and inactive = higher.
Respond using exactly one of the listed classes: True for active, False for inactive

Use the examples below as a reference point.
1) O=C1C=CC(=O)c2c1ccc1c3ccccc3n(CCCCCCCCCCCCn3c4ccccc4c4ccc5c(c43)C(=O)C=CC5=O)c21    False
2) CC(C)(CN1CCCCC1)C(=O)CC(SCCS(=O)(=O)O)c1ccccc1 (stereo not given)    False
3) CCc1ccc(NC(=O)NC(=O)c2ccccc2[N+](=O)[O-])cc1Oc1ncc(Cl)cn1    True
4) O=C1C=Cc2c1csc2Br    False
5) O=[N+]([O-])c1cccc(-c2csc(N/N=C3\NC/C(=C/c4ccc5c(c4)OCO5)S3)n2)c1    False
6) Cc1cc(O)c(C=O)c2c1C(=O)Oc1c(CO)c(O)c3c(c1O2)C(O)OC3=O (stereo not given) [SLAZINIC ACID]    False
7) CCC(=O)Oc1ccc2c(c1)c(=O)c1c(NCCCN(C)C)ccc3nnn2c31    False
8) O=c1oc2ccccc2c(O)c1C(C/C(CCN1CCCC1)=N\Nc1ccccc1)c1ccccc1 (stereo not given)    False

QUERY: What classification did Cc1c(CCCl)c(Cl)n2c(nc3ccccc32)c1C#N end up with in this test?
RESULT: False

QUERY: Outcome? CCc1nc(N)nc(N)c1-c1ccc([N+](=O)[O-])c(NCc2ccccc2)c1
RESULT: False
